Reported EC50 by item:
biological target: XIAP BIR3 domain (Homo sapiens); construct: fluorescent probe 4 and the XIAP BIR3 domain (Sino Biological, Beijing, China) were used for all measurements; purchased Sino Biological, Beijing, China; test: Fluorescence polarization inhibition (competition) assay; assay type: binding; settings: XIAP BIR3 50 nM, fluorescent probe 4 2 nM; read-out: EC50
Sequence (P98170 252-356 limits assumed): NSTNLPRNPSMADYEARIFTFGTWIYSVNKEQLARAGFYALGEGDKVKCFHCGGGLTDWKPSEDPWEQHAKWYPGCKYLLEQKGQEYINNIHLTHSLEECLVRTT
Give the value, in units of µM, as a plain number.

| compound | system_under_test | EC50 [µM] |
| --- | --- | --- |
| CN[C@@H](C)C(=O)N[C@H](C(=O)N1CCC[C@H]1C(=O)NC(C)P(=O)(Oc1ccccc1)Oc1ccccc1)C1CCCCC1 (stereo partly drawn) | XIAP BIR3 domain (Homo sapiens) | 30.2 |
| CN[C@@H](C)C(=O)N[C@H](C(=O)N1CCC[C@H]1C(=O)NCP(=O)(c1ccccc1C)c1ccccc1C)C1CCCCC1 | XIAP BIR3 domain (Homo sapiens) | 28 |
| CN[C@@H](C)C(=O)N[C@H](C(=O)N1CCC[C@H]1C(=O)NC(CCc1ccccc1)P(=O)(Oc1ccccc1)Oc1ccccc1)C(C)C (stereo partly drawn) | XIAP BIR3 domain (Homo sapiens) | 17.2 |
| CN[C@@H](C)C(=O)N[C@H](C(=O)N1CCC[C@H]1C(=O)NC(C)P(=O)(Oc1ccc(C(C)C)cc1)Oc1ccc(C(C)C)cc1)C(C)C (stereo partly drawn) | XIAP BIR3 domain (Homo sapiens) | 22 |
| CN[C@@H](C)C(=O)N[C@H](C(=O)N1CCC[C@H]1C(=O)NC(C)P(=O)(Oc1ccc(C(C)(C)C)cc1)Oc1ccc(C(C)(C)C)cc1)C(C)C (stereo partly drawn) | XIAP BIR3 domain (Homo sapiens) | 21.3 |

The reported EC50 of the compound CN[C@@H](C)C(=O)N[C@H](C(=O)N1CCC[C@H]1C(=O)NC(CCSC)P(=O)(Oc1ccccc1)Oc1ccccc1)C(C)C (stereo partly drawn) was 26.2

The reported EC50 of the compound CN[C@@H](C)C(=O)N[C@H](C(=O)N1CCC[C@H]1C(=O)NC(C(C)C)P(=O)(Oc1ccccc1)Oc1ccccc1)C(C)C (stereo partly drawn) was 35

The reported EC50 of the compound CN[C@@H](C)C(=O)N[C@H](C(=O)N1CCC[C@H]1C(=O)NC(C)P(=O)(Oc1ccc(C(C)C)cc1)Oc1ccc(C(C)C)cc1)C1CCCCC1 (stereo partly drawn) was 19.8

The reported EC50 of the compound CN[C@@H](C)C(=O)N[C@H](C(=O)N1CCC[C@H]1C(=O)NC(CC(C)C)P(=O)(Oc1ccccc1)Oc1ccccc1)C1CCCCC1 (stereo partly drawn) was 10.6

* * *

target: XIAP BIR3 domain (Homo sapiens); construct: fluorescent probe 4 and the XIAP BIR3 domain (Sino Biological, Beijing, China) were used for all measurements; purchased Sino Biological, Beijing, China; experiment: Fluorescence polarization inhibition (competition) assay; assay type: binding; conditions: XIAP BIR3 50 nM, fluorescent probe 4 2 nM; read-out: log EC50 (converted)
Grouping by measured EC50 is done with the following cut points: lower range (below 20 µM), middle range (20 µM to below 30 µM), upper range (30 µM or more)

| molecule | group_label |
| --- | --- |
| CN[C@@H](C)C(=O)N[C@H](C(=O)N1CCC[C@H]1C(=O)NC(C(C)C)P(=O)(Oc1ccccc1)Oc1ccccc1)C(C)C (some centres unmarked) | upper range |
| CN[C@@H](C)C(=O)N[C@H](C(=O)N1CCC[C@H]1C(=O)NC(Cc1ccccc1)P(=O)(Oc1ccccc1)Oc1ccccc1)C1CCCCC1 (some centres unmarked) | lower range |
| CCc1ccc(OP(=O)(Oc2ccc(CC)cc2)C(C)NC(=O)[C@@H]2CCCN2C(=O)[C@@H](NC(=O)[C@H](C)NC)C(C)C)cc1 (some centres unmarked) | upper range |
| CCC(NC(=O)[C@@H]1CCCN1C(=O)[C@@H](NC(=O)[C@H](C)NC)C(C)C)P(=O)(Oc1ccccc1)Oc1ccccc1 (some centres unmarked) | upper range |
| CCC(NC(=O)[C@@H]1CCCN1C(=O)[C@@H](NC(=O)[C@H](C)NC)C1CCCCC1)P(=O)(Oc1ccccc1)Oc1ccccc1 (some centres unmarked) | middle range |
| CN[C@@H](C)C(=O)N[C@H](C(=O)N1CCC[C@H]1C(=O)NC(Cc1ccccc1)P(=O)(c1ccccc1)c1ccccc1)C(C)C (some centres unmarked) | lower range |
| CCc1ccc(OP(=O)(Oc2ccc(CC)cc2)C(C)NC(=O)[C@@H]2CCCN2C(=O)[C@@H](NC(=O)[C@H](C)NC)C2CCCCC2)cc1 (some centres unmarked) | middle range |
| CCC(C)C(NC(=O)[C@@H]1CCCN1C(=O)[C@@H](NC(=O)[C@H](C)NC)C(C)C)P(=O)(Oc1ccccc1)Oc1ccccc1 (some centres unmarked) | lower range |

Classify this molecule: CN[C@@H](C)C(=O)N[C@H](C(=O)N1CCC[C@H]1C(=O)NC(Cc1ccccc1)P(=O)(c1ccccc1)c1ccccc1)C1CCCCC1 (some centres unmarked)
lower range

Classify this molecule: CN[C@@H](C)C(=O)N[C@H](C(=O)N1CCC[C@H]1C(=O)NC(CCc1ccccc1)P(=O)(Oc1ccccc1)Oc1ccccc1)C1CCCCC1 (some centres unmarked)
lower range
